target: Human ALDH3A1 (Homo sapiens, UniProt P30838)
Sequence (P30838 1-453): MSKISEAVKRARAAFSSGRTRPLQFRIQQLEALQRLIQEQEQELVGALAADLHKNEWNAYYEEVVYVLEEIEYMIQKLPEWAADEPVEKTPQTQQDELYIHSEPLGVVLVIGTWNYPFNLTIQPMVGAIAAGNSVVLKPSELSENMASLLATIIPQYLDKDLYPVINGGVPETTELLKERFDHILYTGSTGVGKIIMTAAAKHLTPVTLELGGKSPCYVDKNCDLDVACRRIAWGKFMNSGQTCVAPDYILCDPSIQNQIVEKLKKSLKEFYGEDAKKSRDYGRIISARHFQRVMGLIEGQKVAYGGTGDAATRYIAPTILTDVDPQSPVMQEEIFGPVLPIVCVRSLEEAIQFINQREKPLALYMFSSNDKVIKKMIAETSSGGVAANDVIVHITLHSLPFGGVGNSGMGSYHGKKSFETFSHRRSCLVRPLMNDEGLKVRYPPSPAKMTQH
assay_info: ALDH3A1 biochemical assay (benzaldehyde/NADP+, diaphorase-resazurin readout, 1,536-well)
condition_details: Table S2, in-house analogs; curve class
property_label: CC-v2

# annotated cases, reported CC-v2 shown
CNC(=O)c1cccc(-c2cnc3[nH]cc(CC(=O)N(C)c4ccccc4)c3c2)c1 [NCGC00412252-01]: -1.4
CNC(=O)c1cccc(-c2cnc3[nH]cc(CC(=O)NCC(C)C)c3c2)c1 [NCGC00412294-01]: -1.1
Cc1nn(Cc2ccccc2)c(C)c1[C@@H]1C=C[C@@H](NC(=O)c2ccco2)C1 [NCGC00397524-03]: -1.2
Cc1c(-c2cc(C(=O)NCc3cccnc3)c3c(c2)N(C)CCO3)cnn1C [NCGC00417124-01]: -2.2
Cc1nn(-c2ccc(C(C)C)cc2)c(C)c1[C@@H]1C=C[C@@H](NCc2ccc(F)cc2)C1 [NCGC00401594-01]: -2.2

A = O=C(NCc1ccccc1Cl)c1csc(N2CCN(c3ccc(F)cc3)CC2)n1 [NCGC00430734-01]
B = COC(=O)c1ccc2nc(CO[C@H]3CN(C(=O)C4CCOCC4)C[C@H]3F)[nH]c2c1 [NCGC00392526-01]
[ask] Look at A and B . Which one has the lower recorded CC-v2 number? // return label of chosen record
[reply] B
(B: -3, A: -1.2)
